Target: T1, HLA-A*02:01 (human)
T1 construct: MHC monomers first loaded with a UV-sensitive peptide (not identified) that is cleaved and exchanged for the test peptide; captured on streptavidin-coated plates and detected with anti-β2m; also called peptide-receptive MHC molecules; MHC class I
Assay: UV-ligand exchange, anti-b2m ELISA; peptide exchange yield grade
readout label: peptide exchange yield

Worked examples, 3 binders total:
>  <binder>
NMYDLTFHV

>  <peptide exchange yield>
≥ 75%

$$$$
>  <binder>
HMIDLTIHL

>  <peptide exchange yield>
50 to 75%

$$$$
>  <binder>
TLDATVVEL

>  <peptide exchange yield>
≥ 75%

$$$$

Consider the record given below.
Record request: peptide exchange yield value, item `AIYHDITGISV`
50 to 75%
